Entry source: patent EP0341154A2

compounds and their reported CI₅₀ TEST AU MTT A 549
Tested on: A549
measurement.description: MTT reduction proliferation test, 72 h incubation
Format: cell-based
condition.details: A 549 cells

[[record]]
compound = "CCCCC[C@@H]1O[C@@H](O[C@H]2C[C@](O)(CC)[C@H](O)c3c(O)c4c(c(O)c32)C(=O)c2c(O)cccc2C4=O)C[C@H](OC(C)=O)[C@@H]1OC(C)=O"
data_value = "> 1 µg/mL"

[[record]]
compound = "CCCCCC1OC(OC2CC(O)(CC)C(OC3CC(OC(C)=O)C(OC(C)=O)C(CCCCC)O3)c3c(O)c4c(c(O)c32)C(=O)c2c(O)cccc2C4=O)CC(OC(C)=O)C1OC(C)=O (stereo not drawn)"
data_value = "> 1 µg/mL"

[[record]]
compound = "CCCCC1OC(OC2CC(O)(C(C)=O)Cc3c(O)c4c(c(O)c32)C(=O)c2c(OC)cccc2C4=O)CC(OC(C)=O)C1OC(C)=O (stereo not drawn)"
data_value = "> 1 µg/mL"

[[record]]
compound = "CC[C@@H]1O[C@@H](O[C@H]2C[C@](O)(CC)[C@H](O[C@@H]3C[C@H](OC(C)=O)[C@H](OC(C)=O)[C@H](CC)O3)c3c(O)c4c(c(O)c32)C(=O)c2c(O)cccc2C4=O)C[C@H](OC(C)=O)[C@@H]1OC(C)=O"
data_value = "> 1 µg/mL"

[[record]]
compound = "CCC1(O)CC(OC2CC(OC(C)=O)C(OC(C)=O)C(C)O2)c2c(O)c3c(c(O)c2C1O)C(=O)c1cccc(O)c1C3=O (stereo not drawn)"
data_value = "0,086 µg/ml"


Next up:
Query string: Form field: reported CI₅₀ TEST AU MTT A 549 of "CC[C@@H]1O[C@@H](O[C@H]2C[C@](O)(CC)[C@H](O)c3c(O)c4c(c(O)c32)C(=O)c2c(O)cccc2C4=O)C[C@H](OC(C)=O)[C@@H]1OC(C)=O"
Result string: 0,46 µg/ml
